assay: NCI Yeast Anticancer Drug Screen. Data for the rad50 strain (AID 155);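 also: 0% = growth of vehicle-only cultures of the same strain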; details: S. cerevisiae rad50 strain growth inhibition; at 5.0 µM (retest, dose inferred, filed as 0.5); hits give high values
This is part of a sample that, as a whole, favours compounds with a hit. Of some 79,000 tested, about 15% had one in any assay.
Exercise: state measured growth inhibition for each of the molecules provided.
Answer in %, number only, no unit symbol.

What value of growth inhibition has been reported for the following molecule? O=C1OC(/C=C/c2ccccc2)Sc2ccccc21 (stereo not drawn)
-16

Try `c1cc(Nc2ccc3c(c2)OCO3)c2cc(C3CCCCC3)ccc2n1` next.
4

Do the same for `O=C(N/N=C/c1ccc2c(c1)CCC2)c1ccccc1[N+](=O)[O-]` please
62

Try this molecule next: CC(C)(C)[Si](C)(C)OCC1OC(n2cnc3c(N)ncnc32)C2OC(=S)OC12 (stereo not drawn)
5

What do we get for `CCN(CC)c1cccc(Nc2nc3ccccc3s2)c1` ?
-4

Do the same for `Cc1cc(NCCCN(C)C)c2ccc3c(ccc4c(NCCCN(C)C)cc(C)nc43)c2n1` please
11

And what about the molecule `O=C(O)/C=C\C(=O)NNc1ccc(Br)cc1` ?
10

Here is the next molecule: `O=c1oc(C(C(F)(F)F)C(F)(F)F)nc2ccccc12`
10

Same lookup for `CC(=O)c1ccc(NCN2C(=O)c3ccccc3C2=O)cc1` , please.
42

# repeat for `COc1ccc2nc3cccc([N+](=O)[O-])c3c(NCCCO)c2c1`
95

Same question for `Cc1cc(N(CCOS(C)(=O)=O)CCOS(C)(=O)=O)ccc1C=O` please.
29

Another: CC1C=CN(N(C)C)C2=C1C(=O)c1cnccc1C2=O (stereo not drawn)
81

Proceed to CCCCCCC(CCl)c1sc(-c2csc(CCNC(=O)OC(C)(C)C)n2)nc1C(=O)OC (stereo not drawn)
-23

Another molecule to look at: CCCCCCCCCCCCOC1C(COCCN2CCCC2)OC2OC(C)(C)OC21 (stereo not drawn)
13

Also, COc1cc(C(C)C(C(=O)O)C(=O)C(=O)O)cc(OC)c1OC (stereo not drawn) please.
-41

`Cc1ccc(SSc2ccc(C)cc2[N+](=O)[O-])c([N+](=O)[O-])c1` ?
54

Next entry: COc1ccc(/C(=N/O)c2ccccc2C2=Nc3ccccc3C(NCc3ccccc3)O2)cc1C (stereo not drawn)
2

Now the molecule `COc1cc(NCCCCCNC(C)C)c2ncccc2c1Cl`
8

Please give the result for `Cc1ccc(Cl)c2c(=O)c3ccccc3[nH]c12` too.
5

# iterate: S=C1NC2=C(CSC/C2=C\c2ccc(Cl)cc2)C(c2ccc(Cl)cc2)N1 (stereo not drawn)
-9

Field entry: `Cc1[nH]nc(C(F)(F)F)c1N=NN(C)C`
91

And `CCOC(=O)c1sc2[n+](c1C)C(=O)/C(=C/c1cc(OC)c(OC)c(OC)c1)S2` ?
1

Try the molecule `[Cl][Pt+2][Cl].[NH-]CC1(C[NH-])CCCCC1`
26

Try `CC(=O)O/N=C/c1c2ccccc2cc2ccccc12` next.
55

Now consider O=C1c2ccccc2C2CCC1c1ccccc12 (stereo not drawn) and answer again.
0

Now the same for `CCCC(=O)OC(OC(=O)CCC)c1ccc([N+](=O)[O-])o1`
22

Likewise for O=S(=O)(CCC[C@H]1[C@@H](CCOCc2ccccc2)C2CCCN1O2)c1ccccc1 (stereo partly drawn) ?
-9

Check `C[n+]1c(-c2ccc(NC(=O)c3ccc(C(=O)Nc4ccc(-c5cn6ccccc6[n+]5C)cc4)cc3)cc2)cn2ccccc21` too.
16

What do you get for `C#CC1=CC(=O)C(OC)=CC1=O` ?
53

Would you kindly repeat that for `CN(Cc1cccc2ccccc12)Cc1cccc2ccccc12` ?
1

Then this molecule: `O=c1[nH]c(=O)n(CCCO)cc1F`
42

Now the same for `CN(C)CCC(=O)c1c[nH]c2ccccc12`
82

Repeat with `CCc1nc2ccc(N=Nc3c(O)ccc4ccccc34)cc2[nH]1`
-23

---

Could you please report measured growth inhibition for the items listed next?
assay: NCI Yeast Anticancer Drug Screen. Data for the rad14 strain (AID 159);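 also: 0% = growth of vehicle-treated control cultures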; conditions: S. cerevisiae rad14 strain growth inhibition; at 33.0 µM; hits give high values
About 79,000 compounds went through this panel and 15% of them were active in at least one assay; those are over-represented in the sample as a whole.
Output spec: scalar in %, unitless text.

Which value of growth inhibition has been reported for `O=C(c1c(F)c(F)c(F)c(F)c1F)c1c(F)c(F)c(F)c(F)c1F` in the records?
99

And for `C[n+]1c(-c2ccc(NC(=O)c3ccc(C(=O)Nc4ccc(-c5cn6ccccc6[n+]5C)cc4)cc3)cc2)cn2ccccc21` ?
84

Moving on to the next compound: `Cc1ccc(SSc2ccc(C)cc2[N+](=O)[O-])c([N+](=O)[O-])c1`
74

Input `COc1ccc2c(C)cc(N/N=C/c3sccc3C)nc2c1`
35

Same again, this time with CC1=NN(C(=O)CC(=O)N(C(=O)c2ccccc2)c2ccc(Cl)cc2)C(=O)C1N=Nc1ccc([N+](=O)[O-])cc1 (stereo not given)
44

Please give the result for `CCN(CC)CCSc1c2ccccc2nc2cc(NCC(=O)Nc3ccccc3-c3ccccc3NC(=O)CNc3ccc4c(SCCN(CC)CC)c5ccccc5nc4c3)ccc12` too.
74

Let us now turn to `COc1ccc2nc(N/N=C/c3sccc3C)cc(C)c2c1`
97

Continue with `CCN(CC)c1ccc(N=Nc2cc(S(=O)(=O)O)ccc2O)c(O)c1`
1

Request: `COc1ccc2nc3cccc([N+](=O)[O-])c3c(NCCCO)c2c1`
99

Input CCC1SC(=S)N(c2ccc(Cl)cc2)C1=O (stereo not given)
26

Okay, and `Cc1ccc2nc(N/N=C/c3ccc(C)s3)cc(C)c2c1` ?
99

Then this compound: CCCCCCC(CCl)c1sc(-c2csc(CCNC(=O)OC(C)(C)C)n2)nc1C(=O)OC (stereo not given)
23

What do you get for `S=c1[nH]nc(Cc2ccccc2)c(=S)[nH]1` ?
94

Next entry: c1ccc2cc(OCC3CO3)c(OCC3CO3)cc2c1 (stereo not given)
35

Cool, now `O=C1C=CC(=Nc2ccc3c(c2)Cc2cc(Cl)ccc2-3)O1`
99

Then what about the compound `CN(C)c1ccc(/C=C/c2ccnc3ccc4ccccc4c23)cc1` ?
83

Next compound up: `COc1cc(NCCCCCNC(C)C)c2ncccc2c1Cl`
24

Do the same for CC(C)OC(CCC#N)c1ccc(Cl)cc1 (stereo not given) please
-6

Could you do the same for `CCOC(=O)c1sc2[n+](c1C)C(=O)/C(=C/c1cc(OC)c(OC)c(OC)c1)S2` , please?
77

Now try `CCCC#CCOC(=O)c1cc([N+](=O)[O-])cc([N+](=O)[O-])c1` .
99

Next up: O=C1OC(c2ccc(Cl)cc2)Sc2ccccc21 (stereo not given)
98

# repeat for `CCOc1ccc2ccc3cccnc3c2n1`
7

Then this compound: `CCCCCC(=O)C(C)(c1nc2n(c1O)/C(=N/C(=O)Nc1ccc(Cl)cc1)N=N2)c1nc2n(c1O)/C(=N/C(=O)Nc1ccc(Cl)cc1)N=N2`
4

Now the same for `O=C(Cc1ccccc1)c1ccc(O)cc1`
62

Same question for CCCCCCCCCCCCOC1C(COCCN2CCCC2)OC2OC(C)(C)OC21 (stereo not given) please.
98

Also, Cc1c(N=Nc2ccc(Cl)cc2)c(C)n(C2OC(CO)C(O)C(O)C2O)c(=S)c1C#N (stereo not given) please.
28

Another: `CCOC(=O)/C(O)=C(/C=N/C(=S)Nc1c(CC)cccc1CC)C(=O)OCC`
20

Next compound up: `Oc1ccc(Br)cc1C=Nc1cccc(C(F)(F)F)c1`
97

Proceed to `O=C1C=CC(=O)N1c1ccc(Br)cc1Cl`
100

# repeat for `CCOC(=O)C1=C(C)NC(C)=C(C(=O)OCC)C1c1ccc(Cl)cc1`
82

Could you do the same for `Nc1c([N+](=O)[O-])cc2c3c(cccc13)CC2` , please?
39

Please give the result for `[Cl][Pt+2][Cl].[NH-]CC1(C[NH-])CCCCC1` too.
98

Also need `Cc1cnccc1N=Nc1ccc(N(C)C)cc1` , thanks.
39

Continue with `CCSc1c2ccccc2c(-c2nc(F)nc(F)n2)n1CCc1ccccc1`
84

Cool, now `O=c1[nH]cc(F)c(=O)[nH]1`
54

---

Give growth inhibition for every item shown.
assay: NCI Yeast Anticancer Drug Screen. Data for the rad50 strain (AID 155);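 also: 0% = growth of vehicle-only cultures of the same strain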; details: S. cerevisiae rad50 strain growth inhibition; at 1.2 µM; hits give high values
About 79,000 compounds went through this panel and 15% of them were active in at least one assay; those are over-represented in the sample as a whole.
Numbers only here, please. The scale is %.

Recorded growth inhibition of COc1ccc(/C(=N/O)c2ccccc2C2=Nc3ccccc3C(NCc3ccccc3)O2)cc1C (centres undefined) , please.
1

What would you report for `COc1ccc2c(C)cc(N/N=C/c3sccc3C)nc2c1` ?
-15

Param item: `[Cl][Pt+2][Cl].[NH-]CC1(C[NH-])CCCCC1`
-63

What would you report for CCCCCCC(CCl)c1sc(-c2csc(CCNC(=O)OC(C)(C)C)n2)nc1C(=O)OC (centres undefined) ?
-1
